Test system: 922993-354-T-J3-PDC complex spheroids, viability
Experiment: Anticancer human tumor 922993-354-T-J3-PDC patient-derived endometrial carcinoma cell line growth inhibition [GQUAD]
Details: second compound 0.1 µM; first compound 10 µM; stronger effect = lower value
Would you kindly list viability, T/C for each of these compounds?
Only the number, expressed in %, is required.

Look up viability, T/C: COc1ncnc(C2CC2)c1-c1ncc2cnn(Cc3ccc(-c4nc(C(F)(F)F)cn4C(C)C)cc3)c2n1 + CN(C)c1ccc(Nc2c3ccc(NC(=O)CCN4CCCC4)cc3nc3cc(NC(=O)CCN4CCCC4)ccc23)cc1 67.2

For O=C(c1cc(Cc2n[nH]c(=O)c3ccccc23)ccc1F)N1CCN(C(=O)C2CC2)CC1 + Cc1cnc(CNC(=O)c2c(=O)c3ccc(N4CCCN(C)CC4)nc3n3c2sc2ccccc23)cn1 then? 76

CC1COCCN1c1cc(C2(O)CC3CCC(C2)O3)c2cnn(-c3ccn[nH]3)c2n1 (stereo not given) + Cc1cnc(CNC(=O)c2c(=O)c3ccc(N4CCCN(C)CC4)nc3n3c2sc2ccccc23)cn1 , same question. 16.5

Next entry: CC1COCCN1c1cc(-c2ccnn2C)c2ccnc(-c3ccn[nH]3)c2n1 (stereo not given) + CN(C)c1ccc(Nc2c3ccc(NC(=O)CCN4CCCC4)cc3nc3cc(NC(=O)CCN4CCCC4)ccc23)cc1 12.3

Now try CC1COCCN1c1cc(C2(O)CC3CCC(C2)O3)c2cnn(-c3ccn[nH]3)c2n1 (stereo not given) + Cc1[nH]c2ccc(F)cc2c1-c1nc2c3cccnc3c3ncccc3c2[nH]1 . 18.5

* * *

Test system: 922993-354-T-J3-PDC complex spheroids, viability
Assay: Anticancer human tumor 922993-354-T-J3-PDC cell line growth inhibition [GQUAD];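 note: spheroids exposed to compounds for seven days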;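 for viability, T/C: 100% = DMSO vehicle control viability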
Conditions: second compound 0.1 µM; first compound 0.00999 µM; stronger effect = lower value
metric: viability, T/C (%)
# number only, unit % dropped from output

What reported viability, T/C corresponds to CC[C@@]1(O)C(=O)OCc2c1cc1n(c2=O)Cc2cc3c(CN(C)C)c(O)ccc3nc2-1 + Cc1cnc(CNC(=O)c2c(=O)c3ccc(N4CCCN(C)CC4)nc3n3c2sc2ccccc23)cn1 on 922993-354-T-J3-PDC complex spheroids, viability? 55.1

Now consider Cn1ncnc1[C@H]1c2n[nH]c(=O)c3cc(F)cc(c23)N[C@@H]1c1ccc(F)cc1 + Cc1[nH]c2ccc(F)cc2c1-c1nc2c3cccnc3c3ncccc3c2[nH]1 . 80.8

Try the compound Cc1[nH]c2ccccc2c1CCNCc1ccc(/C=C/C(=O)NO)cc1 + Cc1cnc(CNC(=O)c2c(=O)c3ccc(N4CCCN(C)CC4)nc3n3c2sc2ccccc23)cn1 57.6

* * *

Kindly supply the reported viability, T/C values for the records listed here.
Tested on: 922993-354-T-J3-PDC complex spheroids, viability
Experiment: Anticancer human tumor 922993-354-T-J3-PDC cell line growth inhibition [GQUAD];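 note: spheroids exposed to compounds for seven days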;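 for viability, T/C: 100% = DMSO vehicle control viability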
Conditions: second compound 0.1 µM; first compound 0.316 µM; stronger effect = lower value

# input compound: COc1cccc2c1C(=O)c1c(O)c3c(c(O)c1C2=O)CC(O)(C(=O)CO)CC3OC1CC(N)C(O)C(C)O1 (stereo not drawn) + Cc1cnc(CNC(=O)c2c(=O)c3ccc(N4CCCN(C)CC4)nc3n3c2sc2ccccc23)cn1 ; wanted: its viability, T/C 58.3%

Item: CC[C@@]1(O)C(=O)OCc2c1cc1n(c2=O)Cc2cc3c(CN(C)C)c(O)ccc3nc2-1 + Cc1cnc(CNC(=O)c2c(=O)c3ccc(N4CCCN(C)CC4)nc3n3c2sc2ccccc23)cn1 42.7%

Request: Cn1ncnc1[C@H]1c2n[nH]c(=O)c3cc(F)cc(c23)N[C@@H]1c1ccc(F)cc1 + Cc1cnc(CNC(=O)c2c(=O)c3ccc(N4CCCN(C)CC4)nc3n3c2sc2ccccc23)cn1 39.3%

* * *

System: 922993-354-T-J3-PDC complex spheroids, viability
Assay: Anticancer human tumor 922993-354-T-J3-PDC cell line growth inhibition [GQUAD];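 note: spheroids exposed to compounds for seven days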
Details: curve of first compound; second compound 0.1 µM
metric: pIC50
The quantity pIC50 is defined as the negative base-10 logarithm of the molar concentration.

Which pIC50 is reported for this molecule? CC(=O)O[C@H]1C(=O)[C@@]2(C)[C@H]([C@H](OC(=O)c3ccccc3)[C@]3(O)C[C@H](OC(=O)[C@H](O)[C@@H](NC(=O)c4ccccc4)c4ccccc4)C(C)=C1C3(C)C)[C@]1(OC(C)=O)CO[C@@H]1C[C@@H]2O + CN(C)c1ccc(Nc2c3ccc(NC(=O)CCN4CCCC4)cc3nc3cc(NC(=O)CCN4CCCC4)ccc23)cc1 5.06

Then this molecule: COc1cccc2c1C(=O)c1c(O)c3c(c(O)c1C2=O)CC(O)(C(=O)CO)CC3OC1CC(N)C(O)C(C)O1 (stereo not given) + Cc1cnc(CNC(=O)c2c(=O)c3ccc(N4CCCN(C)CC4)nc3n3c2sc2ccccc23)cn1 5.44

* * *

Test system: 922993-354-T-J3-PDC complex spheroids, viability
Test: Anticancer human tumor 922993-354-T-J3-PDC cell line growth inhibition [GQUAD];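 note: spheroids exposed to compounds for seven days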;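 for viability, T/C: 100% = DMSO vehicle control viability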
Details: second compound 1 µM; first compound 0.00999 µM; stronger effect = lower value
metric: viability, T/C (%)
Numbers only here, please. The scale is %.

Lookup: viability, T/C / 922993-354-T-J3-PDC complex spheroids, viability / Cc1[nH]c2ccccc2c1CCNCc1ccc(/C=C/C(=O)NO)cc1 + Cc1[nH]c2ccc(F)cc2c1-c1nc2c3cccnc3c3ncccc3c2[nH]1 115

Cool, now CCc1c2c(nc3ccc(O)cc13)-c1cc3c(c(=O)n1C2)COC(=O)[C@]3(O)CC + Cc1[nH]c2ccc(F)cc2c1-c1nc2c3cccnc3c3ncccc3c2[nH]1 43.4

Entry CCc1c2c(nc3ccc(O)cc13)-c1cc3c(c(=O)n1C2)COC(=O)[C@]3(O)CC + CN(C)c1ccc(Nc2c3ccc(NC(=O)CCN4CCCC4)cc3nc3cc(NC(=O)CCN4CCCC4)ccc23)cc1 please 34.4

What do you have for Cn1ncnc1[C@H]1c2n[nH]c(=O)c3cc(F)cc(c23)N[C@@H]1c1ccc(F)cc1 + CN(C)c1ccc(Nc2c3ccc(NC(=O)CCN4CCCC4)cc3nc3cc(NC(=O)CCN4CCCC4)ccc23)cc1 ? 96

Repeat with Cn1ncnc1[C@H]1c2n[nH]c(=O)c3cc(F)cc(c23)N[C@@H]1c1ccc(F)cc1 + Cc1cnc(CNC(=O)c2c(=O)c3ccc(N4CCCN(C)CC4)nc3n3c2sc2ccccc23)cn1 45.9

Likewise for Cc1[nH]c2ccccc2c1CCNCc1ccc(/C=C/C(=O)NO)cc1 + Cc1cnc(CNC(=O)c2c(=O)c3ccc(N4CCCN(C)CC4)nc3n3c2sc2ccccc23)cn1 ? 38.9

Same thing, different compound: CC[C@@]1(O)C(=O)OCc2c1cc1n(c2=O)Cc2cc3c(CN(C)C)c(O)ccc3nc2-1 + Cc1[nH]c2ccc(F)cc2c1-c1nc2c3cccnc3c3ncccc3c2[nH]1 89.8

Continue with CC[C@@]1(O)C(=O)OCc2c1cc1n(c2=O)Cc2cc3c(CN(C)C)c(O)ccc3nc2-1 + Cc1cnc(CNC(=O)c2c(=O)c3ccc(N4CCCN(C)CC4)nc3n3c2sc2ccccc23)cn1 39.6

Ok, now Cc1[nH]c2ccccc2c1CCNCc1ccc(/C=C/C(=O)NO)cc1 + CN(C)c1ccc(Nc2c3ccc(NC(=O)CCN4CCCC4)cc3nc3cc(NC(=O)CCN4CCCC4)ccc23)cc1 101

* * *

Can you tell me viability, T/C for the items I'm about to list?
Tested on: 922993-354-T-J3-PDC complex spheroids, viability
Assay: Anticancer human tumor 922993-354-T-J3-PDC cell line growth inhibition [GQUAD];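 note: spheroids exposed to compounds for seven days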;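 for viability, T/C: 100% = DMSO vehicle control viability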
Details: second compound 0.1 µM; first compound 1 µM; stronger effect = lower value
Use % as the unit, but write only the number.

Suppose we examine the molecule CC1COCCN1c1cc(-c2ccnn2C)c2ccnc(-c3ccn[nH]3)c2n1 (stereo unspecified) + Cc1[nH]c2ccc(F)cc2c1-c1nc2c3cccnc3c3ncccc3c2[nH]1 ; what viability, T/C value has been reported? 25.4

What do you have for C#Cc1c(F)ccc2cc(O)cc(-c3ncc4c(N5CC6CCC(C5)N6)nc(OCC56CCCN5CC(F)C6)nc4c3F)c12 (stereo unspecified) + Cc1[nH]c2ccc(F)cc2c1-c1nc2c3cccnc3c3ncccc3c2[nH]1 ? 107

For COc1ncnc(C2CC2)c1-c1ncc2cnn(Cc3ccc(-c4nc(C(F)(F)F)cn4C(C)C)cc3)c2n1 + Cc1[nH]c2ccc(F)cc2c1-c1nc2c3cccnc3c3ncccc3c2[nH]1 then? 70.1

What do we get for C#Cc1c(F)ccc2cc(O)cc(-c3ncc4c(N5CC6CCC(C5)N6)nc(OCC56CCCN5CC(F)C6)nc4c3F)c12 (stereo unspecified) + Cc1cnc(CNC(=O)c2c(=O)c3ccc(N4CCCN(C)CC4)nc3n3c2sc2ccccc23)cn1 ? 51.6

And then O=C(NO)c1cnc(N2CCN(S(=O)(=O)c3ccc4ccccc4c3)CC2)nc1 + CN(C)c1ccc(Nc2c3ccc(NC(=O)CCN4CCCC4)cc3nc3cc(NC(=O)CCN4CCCC4)ccc23)cc1 , what is it? 29.6

Next molecule: O=C(NO)c1cnc(N2CCN(S(=O)(=O)c3ccc4ccccc4c3)CC2)nc1 + Cc1[nH]c2ccc(F)cc2c1-c1nc2c3cccnc3c3ncccc3c2[nH]1 38.6

Value source: PubChem BioAssay AID2060489
